# measurementDescription: logP by HPLC (EEC Directive 79/831 Annex V.A8)
# Format: physicochemical
# settings: [b] LC-MS, acidic range, pH 2.7, 0.1% aqueous formic acid and acetonitrile
Kindly supply the reported logP values for the records listed here.

Item under review: `Cc1ccc(C)c(NC(=O)N2CCC(c3nc(C(=O)O[C@H]4CCCC[C@@H]4c4ccccc4)cs3)CC2)c1` . Reported logP?
4.42^[b]

Entry under review: `Cc1ccc(C)c(NC(=O)N2CCC(c3nc(C(=O)Oc4c(C)cccc4Cl)cs3)CC2)c1` . Reported logP?
3.76^[b]

So what's the measured logP for this one? `Cc1cc(CC(=O)N2CCC(c3nc(C(=O)OC4CCCCC4)cs3)CC2)nn1C`
2.66

For `O=C(Oc1cccc2ccccc12)c1csc(C2CCN(C(=O)Cc3cc(C(F)(F)F)ccc3Cl)CC2)n1` , what is its reported logP?
4.56^[b]

Which logP value belongs to `O=C(OCc1ccccc1Br)c1csc(C2CCN(C(=O)Nc3cc(Cl)ccc3Cl)CC2)n1` ?
4.56

Sample O=C(OC1CCCc2ccccc21)c1csc(C2CCN(C(=O)Nc3cc(Cl)ccc3Cl)CC2)n1 (stereo not shown) — what was its logP?
4.92^[b]

Look up logP for this molecule: Cc1ccc(C)c(NC(=O)N2CCC(c3nc(C(=O)OC(C)c4c(Cl)cccc4Cl)cs3)CC2)c1 (stereo not shown)
4.35^[b]

Name the recorded logP for `O=C(OC1CCCCC1)c1csc(C2CCN(C(=O)Nc3cc(C(F)(F)F)ccc3Cl)CC2)n1` .
4.76^[b]

Endpoint output: logP of `Cc1ccc(C)c(NC(=O)N2CCC(c3nc(C(=O)OCc4ccncc4Cl)cs3)CC2)c1` . Value?
2.77^[b]

Look at this molecule and give its reported logP. `Cc1cccc(COC(=O)c2cnc(C3CCN(C(=O)Cn4nc(C(F)F)cc4C(F)F)CC3)s2)c1C`
4.00^[b]

I have this molecule here, COc1cccc(F)c1C(C)OC(=O)c1csc(C2CCN(C(=O)Nc3cc(C)ccc3C)CC2)n1 (stereo not shown) , and I need its recorded logP.
3.79^[b]

Query (molecule): `O=C(OC1CCCCC1)c1csc(C2CCN(C(=O)Cc3cccc(C(F)(F)F)c3)CC2)n1` ; field requested: logP
4.21^[b]

Given the entry `Cc1ccc(C)c(NC(=O)N2CCC(c3nc(C(=O)Oc4c(Br)cccc4Br)cs3)CC2)c1` , report its measured logP.
3.93^[b]

Quick one: logP of `Cc1cc(C(F)(F)F)nn1CC(=O)N1CCN(c2nc(C(=O)Oc3ccccc3Cl)cs2)CC1` ?
3.46

What value of measured logP is listed for `Cc1ccc(CC(=O)N2CCC(c3nc(C(=O)OC4CCCCC4)cs3)CC2)c(C)c1` ?
4.3

Any idea what its logP is? The molecule is Cc1ccc(C)c(NC(=S)N2CCC(c3nc(C(=O)OC4CCCCC4c4ccccc4)cs3)CC2)c1 (stereo not shown)
4.73^[b]

###

# measurementDescription: logP by HPLC (EEC Directive 79/831 Annex V.A8)
# Type: physicochemical
# settings: pH 2.7, given in the preparation examples; read-out: log P (pH 2.7)
So I've got a bunch of compounds here, and I need their chromatographic logP values.
In your answer, state the number alone without any accompanying words.

Item under review: O=C(OC1CCCCC1)c1csc(C2CCN(S(=O)(=O)Cc3cc(F)ccc3F)CC2)n1 [Example 30] . Reported chromatographic logP?
4.05

Consider the compound Cc1ccc(C(F)(F)F)cc1OC(=O)N1CCC(c2nc(C(=O)OC3CCCCC3)cs2)CC1 [Example 38] and give its measured chromatographic logP.
5.28

Which chromatographic logP reading was recorded for the compound CC(C)(C)OC(=O)N1CCC(c2nc(C(=O)OC3CCCCC3)cs2)CC1 [XXXIII-1] ?
4.62

###

# measurementDescription: logP by HPLC (EEC Directive 79/831 Annex V.A8)
# Assay type: physicochemical
# settings: [b] LC-MS, acidic range, pH 2.7, 0.1% aqueous formic acid and acetonitrile
measurementType: logP

Any idea what its logP is? The molecule is Cc1cc(C(F)(F)F)nn1CC(=O)N1CCN(c2nc(C(=O)OC3Cc4ccccc4C3)cs2)CC1 [Example 41]
3.64

Quick one: logP for Cc1cc(C(F)(F)F)nn1CC(=O)N1CCN(c2nc(C(=O)Sc3ccc(Cl)cc3Cl)cs2)CC1 [Example 47] ?
4.49

Param item = O=C(Oc1cccc2ccccc12)c1csc(C2CCN(C(=O)Cc3cccc(C(F)(F)F)c3)CC2)n1 [Example 1] ; retrieve measured logP.
4.16^[b]

Which logP is reported for this molecule? O=C(OCc1ccccc1Br)c1csc(C2CCN(C(=O)Nc3cc(C(F)(F)F)ccc3Cl)CC2)n1 [Example 106]
4.7

What value of measured logP is listed for O=C(OC1CCCCC1)c1csc(C2CCN(C(=O)CC3CCCC(C(F)(F)F)C3)CC2)n1 (centres unmarked) [Example 56] ?
4.58^[b]

###

# measurementDescription: logP by HPLC (EEC Directive 79/831 Annex V.A8)
# Assay type: physicochemical
# settings: [c] LC-MS, neutral range, pH 7.8, 0.001 molar aqueous ammonium bicarbonate and acetonitrile; read-out: logP
measurementType: chromatographic logP
Reply: number alone, nothing else.

Which chromatographic logP is reported for this molecule? `Cc1cc(C(F)(F)F)nn1CC(=O)N1CCN(c2nc(C(=O)OC3CCCCC3)cs2)CC1`
3.68

###

# measurementDescription: logP by HPLC (EEC Directive 79/831 Annex V.A8)
# Assay type: physicochemical
# settings: [b] LC-MS, acidic range, pH 2.7, 0.1% aqueous formic acid and acetonitrile
measurementType: logP

logP lookup needed for Cc1ccc(C)c(NC(=O)N2CCC(c3nc(C(=O)OC4CCCc5ccccc54)cs3)CC2)c1 (stereo not shown) , thanks.
4.09^[b]

Quick one: logP of `O=C(OC1CCCCC1)c1csc(C2CCN(C(=O)C(=O)c3cccs3)CC2)n1` ?
3.46^[b]

Give its logP value. Item: Cc1cc(C(F)(F)F)nn1CC(=O)N1CCN(c2nc(C(=O)OC3CCCc4ccccc43)cs2)CC1 (stereo not shown)
3.98

If you can, please state the reported logP value of Cc1ccc(C)c(NC(=S)N2CCC(c3nc(C(=O)OC4CCCc5ccccc54)cs3)CC2)c1 (stereo not shown) .
4.39^[b]

###

# measurementDescription: logP by HPLC (EEC Directive 79/831 Annex V.A8)
# Format: physicochemical
# settings: [c] LC-MS, neutral range, pH 7.8, 0.001 molar aqueous ammonium bicarbonate and acetonitrile
measurementType: logP
Reply with just the number.

Quick one: logP of `Cn1nc(C(F)(F)F)cc1OC(=O)N1CCC(c2nc(C(=O)OC3CCCCC3)cs2)CC1` ?
4.37

So what's the measured logP for this one? `Cc1cc(C(F)(F)F)nn1CC(=O)N1CCN(c2nc(C(=O)Sc3ccc(Cl)cc3Cl)cs2)CC1`
4.5

Give the measured logP of `COc1ccc(OC)c(NC(=O)N2CCC(c3nc(C(=O)OCc4ccccc4Br)cs3)CC2)c1` .
3.81

Can you share its logP? I mean this compound: `O=C(OCc1ccccc1Br)c1csc(C2CCN(C(=S)Nc3cc(F)ccc3F)CC2)n1`
3.87

# get_value(readout='logP', item= `O=C(OCc1c(F)cccc1F)c1csc(C2(F)CCN(C(=O)Cn3nc(C(F)F)cc3C(F)F)CC2)n1` )
3.56

Name the recorded logP for `Cc1cc(C(F)(F)F)nn1CC(=O)N1CCC(F)(c2nc(C(=O)OCc3c(F)cccc3F)cs2)CC1` .
3.67

# lookup: logP of `O=C(OCc1ccccc1Br)c1csc(C2CCN(C(=S)Nc3cc(C(F)(F)F)ccc3F)CC2)n1`
4.37

Consider the compound shown here: `Cc1ccc(C)c(NC(=O)N2CCC(F)(c3nc(C(=O)OCc4c(F)cccc4F)cs3)CC2)c1` What is its recorded logP?
3.71

Look up logP for this compound: `Cc1ccc(F)c(NC(=O)N2CCC(c3nc(C(=O)OCc4ccccc4Br)cs3)CC2)c1`
3.83

// logP lookup, key: `Cc1ccc(CC(=O)N2CCC(c3nc(C(=O)OC4CCCCC4)cs3)CC2)c(C)c1`
4.33

Endpoint output: logP of Cc1cc(C(F)(F)F)nn1CC(=O)N1CCN(c2nc(C(=O)OC3CCc4ccccc4C3)cs2)CC1 (stereo not shown) . Value?
3.82

Field request: logP | item: O=C(OC1CCCc2ccccc21)c1csc(C2CCN(C(=S)Nc3cc(F)ccc3F)CC2)n1 (stereo not shown)
3.94

###

# measurementDescription: logP by HPLC (EEC Directive 79/831 Annex V.A8)
# Assay type: physicochemical
# settings: pH 2.7, given in the preparation examples; read-out: log P (pH 2.7)
measurementType: chromatographic logP
Output: the number by itself.

Record request: chromatographic logP value, item `CC(C)(C)OC(=O)N1CCC(c2nc(C(=O)O)cs2)CC1`
2.04

Which chromatographic logP value belongs to `Cc1ccc(C)c(NC(=O)N2CCC(c3nc(C(=O)OC4CCCCC4)cs3)CC2)c1` ?
3.82

Param item = `O=C(OC1CCCCC1)c1csc(C2CCNCC2)n1` ; retrieve measured chromatographic logP.
1.25

Quick one: chromatographic logP for `Cc1cc(C(F)(F)F)nn1CC(=O)N1CCN(c2nc(C(=O)OC3CCCCC3)cs2)CC1` ?
3.69

Which chromatographic logP value is on record for `O=C(OC1CCCCC1)c1csc(C2CCN(C(=O)Cc3cc(Br)ccc3Br)CC2)n1` ?
4.72
